# Target or system: human TLR7 (Homo sapiens, UniProt Q9NYK1)
# Protocol details: TLR7 inhibition reporter assay (HEK-Blue SEAP)
# Reported conditions: HEK-Blue cells overexpressing human TLR7, stimulated with gardiquimod 7.5 μM, 22 hour incubation
# Excerpt: TLR7/8/9 Inhibition Reporter Assays HEK-Blue™-cells (Invivogen) overexpressing human TLR7, TLR8 or TLR9 receptors were used for screening inhibitors of these receptors using an inducible SEAP (secreted embryonic alkaline phosphatase) reporter gene under the control of the IFN-β minimal promoter fused to five NF-κB and AP-1-binding sites. […]
# if measured IC50 < 3 nM: YES  # else: NO

| Compound | Qualitative label |
| --- | --- |
| Cc1cc(-c2cc3[nH]nc(C4CCN(CCC#N)CC4)c3cc2C(C)C)cn2ncnc12 [Example 121] | YES |
| COc1cc(-c2cc3[nH]nc(C4CCC(N5CC(OC)C5)CC4)c3cc2C(C)C)cn2ncnc12 (single isomer, unassigned) [Example 148] | YES |
| Cc1cc(-c2cc3[nH]nc(N4CCN(C(C)C)CC4)c3cc2C(C)C)cn2ncnc12 [Example 208] | NO |
| Cc1cc(-c2cc3[nH]nc(C4CCC(N5CC6(CCOC6)C5)CC4)c3cc2C(C)C)cn2ncnc12 (centres unmarked) [Example 157] | YES |
| Cc1cc(-c2cc3[nH]nc(C4CCC(N5CC6(CCO6)C5)CC4)c3cc2C(C)C)cn2ncnc12 (centres unmarked) [Example 155] | YES |
| Cc1cc(-c2cc(C)c3ncnn3c2)cc2[nH]nc(C3CCCN(CC(=O)N(C)C)C3)c12 (centres unmarked) [Example 59] | NO |
| Cc1cc(-c2cc3[nH]nc(N4CCNCC4)c3cc2C(C)C)cn2ncnc12 [Example 206] | NO |
| COc1cc(-c2cc(C)c3cn[nH]c3c2)cn2ncnc12 [Example 66] | NO |

###

Let's look at some molecules and their measured pIC50.
# Target or system: human TLR7 (Homo sapiens)
# Sequence (Q9NYK1 27-1049): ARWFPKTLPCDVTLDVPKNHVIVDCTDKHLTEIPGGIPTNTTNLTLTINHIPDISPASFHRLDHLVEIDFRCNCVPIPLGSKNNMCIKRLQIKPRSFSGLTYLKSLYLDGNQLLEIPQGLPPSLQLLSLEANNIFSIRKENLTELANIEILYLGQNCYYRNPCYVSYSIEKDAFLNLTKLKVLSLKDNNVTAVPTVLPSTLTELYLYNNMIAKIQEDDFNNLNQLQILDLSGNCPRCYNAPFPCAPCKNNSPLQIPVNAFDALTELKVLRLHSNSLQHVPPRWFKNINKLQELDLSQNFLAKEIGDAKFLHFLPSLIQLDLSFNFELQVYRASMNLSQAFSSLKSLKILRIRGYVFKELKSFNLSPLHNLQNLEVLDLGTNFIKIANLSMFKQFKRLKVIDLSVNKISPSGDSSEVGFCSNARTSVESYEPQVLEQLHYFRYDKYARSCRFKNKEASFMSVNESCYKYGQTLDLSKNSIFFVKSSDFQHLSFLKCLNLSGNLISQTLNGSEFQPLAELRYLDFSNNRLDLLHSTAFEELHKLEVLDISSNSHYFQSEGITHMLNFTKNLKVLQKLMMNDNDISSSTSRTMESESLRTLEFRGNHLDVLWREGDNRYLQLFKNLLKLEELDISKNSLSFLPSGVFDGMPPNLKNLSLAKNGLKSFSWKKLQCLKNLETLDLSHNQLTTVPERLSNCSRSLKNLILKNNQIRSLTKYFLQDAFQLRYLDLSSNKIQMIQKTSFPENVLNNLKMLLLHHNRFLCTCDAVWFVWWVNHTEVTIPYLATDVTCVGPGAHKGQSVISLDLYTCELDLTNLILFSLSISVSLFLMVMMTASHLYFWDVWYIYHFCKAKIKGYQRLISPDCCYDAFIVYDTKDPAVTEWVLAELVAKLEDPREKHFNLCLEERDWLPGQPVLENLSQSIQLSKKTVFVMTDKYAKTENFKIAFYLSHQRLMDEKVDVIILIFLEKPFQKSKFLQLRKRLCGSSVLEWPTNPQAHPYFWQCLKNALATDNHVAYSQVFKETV
# Protocol details: TLR7 inhibition reporter assay (HEK-Blue SEAP)
# Reported conditions: HEK-Blue cells overexpressing human TLR7, stimulated with gardiquimod 7.5 μM, 22 hour incubation
pIC50: −log10 of the molar value.
Measurement label: pIC50

| Molecule | Measurement label | Measured result |
| --- | --- | --- |
| Cc1cc2c(C3CCC(N(C)C)CC3)n[nH]c2cc1-c1cc(C)c2ncnn2c1 (single isomer, unassigned) [Example 3] | pIC50 | 7.99 |
| Cc1cc(-c2cc3[nH]nc(C4CCC(N5CCC6(CCOC6)C5)CC4)c3cc2C(C)C)cn2ncnc12 (single isomer, unassigned) [Example 210] | pIC50 | 8.68 |
| Cc1cc(-c2ccc3c(CCNC4CCNCC4)c[nH]c3c2)cn2ncnc12 | pIC50 | 5.77 |
| Cc1cc(-c2cc3[nH]nc(C4CCC(N5CCC(C)(O)C5)CC4)c3cc2C(C)C)cn2ncnc12 (single isomer, unassigned) [Example 165] | pIC50 | 9.30 |
| CCc1cc2c(C3CCC(NC4CC4)CC3)n[nH]c2cc1-c1cc(C)c2ncnn2c1 (single isomer, unassigned) [Example 97] | pIC50 | 9.22 |
| Cc1cc(-c2cc(C)c3ncnn3c2)cc2[nH]nc(OC3CCC(NCC(=O)N(C)C)CC3)c12 (single isomer, unassigned) [Example 185] | pIC50 | 7.68 |
| Cc1cc(-c2cc(C)c3ncnn3c2)cc2[nH]nc(OC3CCN(CC#N)CC3)c12 | pIC50 | 8.14 |
| Cc1cc(-c2cc3[nH]nc(C4CCC(N5CC(C)(C)C5)CC4)c3cc2C(C)C)cn2ncnc12 (single isomer, unassigned) [Example 136] | pIC50 | 7.58 |
| Cc1cc(-c2cc3[nH]nc(C4CCN(C(=O)CN(C)C)CC4)c3cc2C(C)C)cn2ncnc12 | pIC50 | 8.74 |
| Cc1cc2c(C3CCCN(C(=O)CN(C)C)C3)n[nH]c2cc1-c1cc(C)c2ncnn2c1 (centres unmarked) [Example 54] | pIC50 | 7.39 |
| Cc1cc2c(C3CCNCC3)n[nH]c2cc1-c1cc(-c2cncnc2)c2ncnn2c1 | pIC50 | 7.48 |
| Cc1cc(-c2cc3[nH]nc(C4CCC(NCCS(C)(=O)=O)CC4)c3cc2C(C)C)cn2ncnc12 (centres unmarked) [Example 127] | pIC50 | 8.72 |
| COc1cc(-c2cc3[nH]nc(C4CCCNC4)c3cc2C)cn2ncnc12 (centres unmarked) | pIC50 | 7.72 |
| Cc1cc2c(C3CCC(N(C)C4COC4)CC3)n[nH]c2cc1-c1cc(C)c2ncnn2c1 (single isomer, unassigned) [Example 32] | pIC50 | 7.74 |

###

# Target or system: human TLR9 (Homo sapiens)
# Protocol details: TLR9 inhibition reporter assay (HEK-Blue SEAP)
# Reported conditions: HEK-Blue cells overexpressing human TLR9, stimulated with ODN2006 5 nM, 22 hour incubation
pIC50: −log10 of the molar value.
Measurement label: pIC50

| Compound | Measured result |
| --- | --- |
| Cc1cc2c(C3CCNCC3)n[nH]c2cc1-c1cc(-c2cncnc2)c2ncnn2c1 | 5.41 |
| COc1cc(-c2ccc3c(C(=O)NC4CCNCC4)c[nH]c3c2)cn2ncnc12 | 4.55 |
| Cc1cc(-c2cc3[nH]nc(C4CCN(C(=O)CCN(C)C)CC4)c3cc2C(C)C)cn2ncnc12 | 4.86 |
| Cc1cc(-c2cc(C)c3ncnn3c2)cc2[nH]nc(OC3CCC(NCC(=O)N(C)C)CC3)c12 (single isomer, unassigned) [Example 186] | 5.59 |
| CCc1cc2c(C3CCN(C4CCOCC4)CC3)n[nH]c2cc1-c1cc(C)c2ncnn2c1 | 4.85 |
| Cc1cc2c(OCCN(C)C)n[nH]c2cc1-c1cc(C)c2ncnn2c1 | 5.29 |
| CCc1cc2c(C3CCN(C(=O)CCCN(C)C)CC3)n[nH]c2cc1-c1cc(C)c2ncnn2c1 | 4.78 |
| COc1ccc(-c2cc3[nH]nc(C4CCCNC4)c3cc2C)cc1OC (centres unmarked) | 5.49 |

###

# Target or system: human TLR9 (Homo sapiens, UniProt Q9NR96)
# Sequence (Q9NR96 26-1032): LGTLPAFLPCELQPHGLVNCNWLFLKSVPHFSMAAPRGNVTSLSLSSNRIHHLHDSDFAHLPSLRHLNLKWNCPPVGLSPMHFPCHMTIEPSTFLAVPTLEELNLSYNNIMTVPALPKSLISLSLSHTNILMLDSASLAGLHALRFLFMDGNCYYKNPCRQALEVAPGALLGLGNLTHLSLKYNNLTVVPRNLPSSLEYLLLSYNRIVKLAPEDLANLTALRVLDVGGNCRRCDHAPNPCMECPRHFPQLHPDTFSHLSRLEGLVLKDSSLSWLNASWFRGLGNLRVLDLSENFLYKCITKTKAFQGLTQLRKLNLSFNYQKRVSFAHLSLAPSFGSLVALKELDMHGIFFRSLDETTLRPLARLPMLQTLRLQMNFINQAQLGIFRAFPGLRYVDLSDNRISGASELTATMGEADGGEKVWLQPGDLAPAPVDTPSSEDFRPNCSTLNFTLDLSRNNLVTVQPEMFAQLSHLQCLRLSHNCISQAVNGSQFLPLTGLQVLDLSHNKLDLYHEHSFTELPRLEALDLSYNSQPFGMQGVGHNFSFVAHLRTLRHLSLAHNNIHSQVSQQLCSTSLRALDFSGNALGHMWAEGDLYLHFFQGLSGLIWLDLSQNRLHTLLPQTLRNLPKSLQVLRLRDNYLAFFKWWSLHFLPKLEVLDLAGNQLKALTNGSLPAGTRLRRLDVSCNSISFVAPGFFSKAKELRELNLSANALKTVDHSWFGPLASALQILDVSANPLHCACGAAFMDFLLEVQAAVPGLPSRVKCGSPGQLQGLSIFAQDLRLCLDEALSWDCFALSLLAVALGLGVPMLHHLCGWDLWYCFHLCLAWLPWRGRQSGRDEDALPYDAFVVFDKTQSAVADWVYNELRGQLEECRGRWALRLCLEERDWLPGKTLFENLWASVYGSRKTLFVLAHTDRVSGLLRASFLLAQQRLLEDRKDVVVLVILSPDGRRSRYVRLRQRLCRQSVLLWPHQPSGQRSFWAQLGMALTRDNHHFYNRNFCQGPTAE
# Protocol details: TLR9 inhibition reporter assay (HEK-Blue SEAP)
# Reported conditions: HEK-Blue cells overexpressing human TLR9, stimulated with ODN2006 5 nM, 22 hour incubation
pIC50: −log10 of the molar value.
Measured pIC50 by item

| Compound | Result comparator | pIC50 |
| --- | --- | --- |
| Cc1cc(-c2ccc3c(CCNC4CCNCC4)c[nH]c3c2)cn2ncnc12 | = | 6.22 |
| CCc1cc(-c2cc(C)c3ncnn3c2)cc2[nH]nc(OC3CCN(CC(=O)N(C)C)CC3)c12 | = | 5.24 |
| Cc1cc(-c2cc(C)c3ncnn3c2)cc2[nH]nc(OCCN(C)C)c12 | = | 5.73 |
| Cc1cc(-c2cc(C)c3ncnn3c2)cc2[nH]nc(C3CCCNC3)c12 (centres unmarked) | = | 6.54 |
| CCc1cc(-c2cc(C)c3ncnn3c2)cc2[nH]nc(OC3CCNCC3)c12 | = | 5.21 |
| Cc1cc(-c2cc(C)c3ncnn3c2)cc2[nH]nc(C3CCNCC3)c12 | = | 6.19 |
| Cc1cc2c(C3CCCN(CC(=O)N(C)C)C3)n[nH]c2cc1-c1cc(C)c2ncnn2c1 (centres unmarked) [Example 57] | = | 5.16 |
| Cc1cc2c(OC3CCC(N(C)C)CC3)n[nH]c2cc1-c1cc(C)c2ncnn2c1 (single isomer, unassigned) [Example 181] | ≤ | 4.30 |
